Biological target: STAT3 (Homo sapiens, UniProt P40763)
Construct: endogenous in cells; host or cells: MOLM-16 (acute leukemia cells)
Sequence (P40763 whole entry): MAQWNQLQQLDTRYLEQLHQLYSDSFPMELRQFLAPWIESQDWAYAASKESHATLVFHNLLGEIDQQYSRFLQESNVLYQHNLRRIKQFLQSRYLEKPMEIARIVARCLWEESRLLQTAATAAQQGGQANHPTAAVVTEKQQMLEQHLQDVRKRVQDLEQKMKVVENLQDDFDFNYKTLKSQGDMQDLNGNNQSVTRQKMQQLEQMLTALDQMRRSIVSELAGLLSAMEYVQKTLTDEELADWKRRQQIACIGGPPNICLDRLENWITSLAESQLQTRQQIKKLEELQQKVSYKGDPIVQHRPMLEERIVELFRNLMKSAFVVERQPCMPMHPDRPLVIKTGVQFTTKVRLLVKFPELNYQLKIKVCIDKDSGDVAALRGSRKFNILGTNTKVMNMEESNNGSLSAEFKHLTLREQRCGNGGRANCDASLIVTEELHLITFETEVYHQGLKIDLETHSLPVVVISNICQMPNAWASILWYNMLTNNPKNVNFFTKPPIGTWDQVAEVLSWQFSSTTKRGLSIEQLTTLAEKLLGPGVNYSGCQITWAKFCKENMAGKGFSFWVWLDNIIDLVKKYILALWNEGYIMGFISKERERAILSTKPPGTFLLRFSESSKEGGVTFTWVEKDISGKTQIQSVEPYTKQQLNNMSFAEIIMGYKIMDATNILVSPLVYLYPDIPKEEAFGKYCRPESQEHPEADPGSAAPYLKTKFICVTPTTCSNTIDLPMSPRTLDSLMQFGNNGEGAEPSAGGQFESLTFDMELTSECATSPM
Test: Fluorescent immunoblotting of STAT3 protein in MOLM-16 cells (estimated DC50)
Format: cell-based
Settings: MOLM-16, 4 h
quantityKind: DC50 (nM)
State just the number; it will be interpreted in nM.

Memo: NC(=O)CC[C@H](NC(=O)[C@@H]1CC[C@@H]2CCN(C(=O)CCCCCC#Cc3cccc4c3CN(C3CCC(=O)NC3=O)C4=O)C[C@H](NC(=O)c3cc4cc(C(F)(F)P(=O)(O)O)ccc4s3)C(=O)N21)c1nc(-c2ccc(Cl)cc2)cs1 (some centres unmarked) , reported DC50: 100

Memo: CC(C)(C)c1ccc(-c2cnc([C@H](CCC(N)=O)NC(=O)[C@@H]3CC[C@@H]4CCN(C(=O)CCCCCC#Cc5cccc6c5CN(C5CCC(=O)NC5=O)C6=O)C[C@H](NC(=O)c5cc6cc(C(F)(F)P(=O)(O)O)ccc6s5)C(=O)N43)s2)cc1 (some centres unmarked) , reported DC50: 200

----------
Target: STAT3 (Homo sapiens, UniProt P40763)
Construct: endogenous in cells; host or cells: MOLM-16 (acute leukemia cells)
Assay: Fluorescent immunoblotting of STAT3 protein in MOLM-16 cells (estimated DC50)
Assay type: cell-based
Conditions: MOLM-16, 4 h
What DC50 was measured for each of the following?
State just the number; it will be interpreted in nM.

Test item COC(=O)N1CC[C@H]2CC[C@@H](C(=O)N[C@@H](CCCN)C(=O)N[C@@H](Cc3ccc(C(C)(C)C)cc3)C(=O)N3CCC(CCC#Cc4cccc5c4CN(C4CCC(=O)NC4=O)C5=O)CC3)N2C(=O)[C@@H](NC(=O)c2cc3cc(C(F)(F)P(=O)(O)O)ccc3s2)C1 (some centres unmarked) [Cpd. No. 1] ; STAT3 (Homo sapiens, UniProt P40763); reported DC50 was 1000

Test item NC(=O)CC[C@H](NC(=O)[C@@H]1CC[C@@H]2CCN(C(=O)CCCCCC#Cc3cccc4c3CN(C3CCC(=O)NC3=O)C4=O)C[C@H](NC(=O)c3cc4cc(C(F)(F)P(=O)(O)O)ccc4s3)C(=O)N21)c1nc2c(s1)Cc1ccccc1-2 (some centres unmarked) [Cpd. No. 6] ; STAT3 (Homo sapiens, UniProt P40763); reported DC50 was 100

Test item NC(=O)CC[C@H](NC(=O)[C@@H]1CC[C@@H]2CCN(C(=O)CCCCCC#Cc3cccc4c3CN(C3CCC(=O)NC3=O)C4=O)C[C@H](NC(=O)c3cc4cc(C(F)(F)P(=O)(O)O)ccc4s3)C(=O)N21)c1nc(-c2ccc(F)c(Cl)c2)cs1 (some centres unmarked) [Cpd. No. 14] ; STAT3 (Homo sapiens, UniProt P40763); reported DC50 was 50

----------
Molecular target: STAT1 (Homo sapiens)
Construct: endogenous in cells; host or cells: MOLM-16 (acute leukemia cells)
Sequence (P42224 1-750): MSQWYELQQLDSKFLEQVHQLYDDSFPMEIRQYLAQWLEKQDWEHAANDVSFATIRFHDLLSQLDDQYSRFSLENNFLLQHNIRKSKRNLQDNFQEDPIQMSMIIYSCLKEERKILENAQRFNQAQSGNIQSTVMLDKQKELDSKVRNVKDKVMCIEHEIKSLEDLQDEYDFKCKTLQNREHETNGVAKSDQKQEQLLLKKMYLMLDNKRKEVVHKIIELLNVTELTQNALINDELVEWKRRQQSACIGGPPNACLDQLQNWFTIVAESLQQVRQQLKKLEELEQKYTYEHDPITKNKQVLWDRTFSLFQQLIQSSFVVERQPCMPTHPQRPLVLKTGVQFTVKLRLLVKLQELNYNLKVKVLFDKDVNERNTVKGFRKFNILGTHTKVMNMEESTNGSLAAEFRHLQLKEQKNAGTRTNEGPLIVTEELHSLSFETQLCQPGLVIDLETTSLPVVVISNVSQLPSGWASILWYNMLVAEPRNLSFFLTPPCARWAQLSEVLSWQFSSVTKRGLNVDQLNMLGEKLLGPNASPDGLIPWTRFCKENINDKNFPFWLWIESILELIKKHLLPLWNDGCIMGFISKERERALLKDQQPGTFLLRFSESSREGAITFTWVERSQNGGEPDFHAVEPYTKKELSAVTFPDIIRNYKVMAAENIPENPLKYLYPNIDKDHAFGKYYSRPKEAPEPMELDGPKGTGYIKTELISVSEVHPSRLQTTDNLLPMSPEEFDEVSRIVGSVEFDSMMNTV
Assay: Fluorescent immunoblotting of STAT1 protein in MOLM-16 cells (estimated DC50)
Format: cell-based
Conditions: MOLM-16, 4 h
quantityKind: DC50

Memo: CCN1CC[C@H]2CC[C@@H](C(=O)N[C@@H](CCn3ccnc3N)C(=O)N[C@@H](Cc3ccc(C(C)(C)C)cc3)C(=O)N3CCC(CCC#Cc4cccc5c4CN(C4CCC(=O)NC4=O)C5=O)CC3)N2C(=O)[C@@H](NC(=O)c2cc3cc(C(F)(F)P(=O)(O)O)ccc3s2)C1 (some centres unmarked) [Cpd. No. 22] , reported DC50: > 1000 nM

Memo: CCN1CC[C@H]2CC[C@@H](C(=O)N[C@@H](CCS(N)(=O)=O)C(=O)N[C@@H](Cc3ccc(C(C)(C)C)cc3)C(=O)N3CCC(CCC#Cc4cccc5c4CN(C4CCC(=O)NC4=O)C5=O)CC3)N2C(=O)[C@@H](NC(=O)c2cc3cc(C(F)(F)P(=O)(O)O)ccc3s2)C1 (some centres unmarked) [Cpd. No. 20] , reported DC50: > 1000 nM
